Entry source: patent US20250270315A1

Assign MFI at 10 nM to each entry below.
TARGET: cyno SIRPα stably expressed on CHOK1 cells (cyno)
ASSAY_NOTES: FACS, CHOK1-cyno SIRPα cells
Note: state the figure and append the unit.

Lab book: MFI at 10 nM of 025 (antibody, V domains shown) VH: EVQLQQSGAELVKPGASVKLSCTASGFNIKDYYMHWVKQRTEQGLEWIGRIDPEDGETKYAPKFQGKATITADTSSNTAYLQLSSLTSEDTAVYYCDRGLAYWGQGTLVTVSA VL: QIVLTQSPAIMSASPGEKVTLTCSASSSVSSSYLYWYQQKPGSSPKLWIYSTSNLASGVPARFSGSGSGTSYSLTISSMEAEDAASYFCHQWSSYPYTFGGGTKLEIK noted as 8560 MFI

Notebook: 073 (antibody, V domains shown) VH: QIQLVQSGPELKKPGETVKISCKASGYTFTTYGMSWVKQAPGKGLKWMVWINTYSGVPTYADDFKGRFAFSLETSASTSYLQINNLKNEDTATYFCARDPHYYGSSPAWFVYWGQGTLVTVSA VL: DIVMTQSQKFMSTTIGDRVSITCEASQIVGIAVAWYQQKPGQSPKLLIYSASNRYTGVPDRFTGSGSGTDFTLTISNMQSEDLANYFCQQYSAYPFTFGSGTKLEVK , MFI at 10 nM read as 7850 MFI

Field MFI at 10 nM (entry 015 (antibody, V domains shown) VH: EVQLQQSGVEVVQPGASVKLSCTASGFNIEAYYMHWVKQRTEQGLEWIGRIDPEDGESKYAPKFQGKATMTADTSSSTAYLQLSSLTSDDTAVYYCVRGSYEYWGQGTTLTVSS VL: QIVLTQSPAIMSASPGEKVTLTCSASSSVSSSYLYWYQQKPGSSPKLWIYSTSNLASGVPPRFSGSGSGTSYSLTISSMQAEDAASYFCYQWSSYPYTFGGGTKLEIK ) reads 10800 MFI
